B1: TPR 5TU (parent)
chain: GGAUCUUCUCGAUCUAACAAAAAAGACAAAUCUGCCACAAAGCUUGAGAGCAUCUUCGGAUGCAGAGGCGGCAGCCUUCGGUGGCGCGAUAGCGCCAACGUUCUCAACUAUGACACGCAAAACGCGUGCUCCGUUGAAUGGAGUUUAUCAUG

variants of: B1; experiment: polymerase ribozyme fitness, log enrichment relative to wild type (log ratio); higher = more active; in vitro selection for triplet polymerase activity
Fewer inactive variants are shown than the library holds.

- Mutation label: "U13C G94C"
  Comparative sign: "="
  polymerase ribozyme fitness (log ratio): -0.0586
- Mutation label: "A47U G48A U146G"
  Comparative sign: "="
  polymerase ribozyme fitness (log ratio): -2.73
- Mutation label: "C93A G136A"
  Comparative sign: "="
  polymerase ribozyme fitness (log ratio): -1.14
- Mutation label: "A52U C54U G92A A98G A120G U139C U144C U151A"
  Comparative sign: "≤"
  polymerase ribozyme fitness (log ratio): -4.2
- Mutation label: "A24C G81U G83C A110U C114G"
  Comparative sign: "≤"
  polymerase ribozyme fitness (log ratio): -4.2
- Mutation label: "A29U U55A A60G G86A U130C"
  Comparative sign: "≤"
  polymerase ribozyme fitness (log ratio): -4.2
- Mutation label: "G11A A23U U53A G92U C108U A142U"
  Comparative sign: "≤"
  polymerase ribozyme fitness (log ratio): -4.2
- Mutation label: "G83A U101C"
  Comparative sign: "="
  polymerase ribozyme fitness (log ratio): -2.23
- Mutation label: "U55A U56G C75G"
  Comparative sign: "="
  polymerase ribozyme fitness (log ratio): -4.19
- Mutation label: "U13C A37G G126C"
  Comparative sign: "="
  polymerase ribozyme fitness (log ratio): -1.85
- Mutation label: "U7G C69G C93A"
  Comparative sign: "≤"
  polymerase ribozyme fitness (log ratio): -4.2
- Mutation label: "C14U C63U C85A A115G"
  Comparative sign: "="
  polymerase ribozyme fitness (log ratio): -3.56
- Mutation label: "A19C A22U C35A A106G"
  Comparative sign: "="
  polymerase ribozyme fitness (log ratio): -3.28
- Mutation label: "A16G A24U G46U C85G A106C U109A C114U C118G A120G"
  Comparative sign: "≤"
  polymerase ribozyme fitness (log ratio): -4.2
- Mutation label: "A49G C93A U134A U146G"
  Comparative sign: "≤"
  polymerase ribozyme fitness (log ratio): -4.2
- Mutation label: "C93U U109C"
  Comparative sign: "≤"
  polymerase ribozyme fitness (log ratio): -4.2
- Mutation label: "C51U G86U"
  Comparative sign: "="
  polymerase ribozyme fitness (log ratio): -1.45
- Mutation label: "C95U U102G"
  Comparative sign: "="
  polymerase ribozyme fitness (log ratio): -1.19
- Mutation label: "A16C G59A C85G G126U"
  Comparative sign: "="
  polymerase ribozyme fitness (log ratio): -2.76
- Mutation label: "A17C C38A U55G G86U C116G A122G"
  Comparative sign: "="
  polymerase ribozyme fitness (log ratio): -2.93
- Mutation label: "C85U C96U"
  Comparative sign: "="
  polymerase ribozyme fitness (log ratio): -0.746
- Mutation label: "A16C C18G A47U G92A U101A"
  Comparative sign: "≤"
  polymerase ribozyme fitness (log ratio): -4.2
- Mutation label: "C93U G133C"
  Comparative sign: "="
  polymerase ribozyme fitness (log ratio): -2.76
- Mutation label: "C5G G94C U101G"
  Comparative sign: "="
  polymerase ribozyme fitness (log ratio): -2.68
- Mutation label: "A16C A20G A24U A40G G48U G58U U77C C85U"
  Comparative sign: "≤"
  polymerase ribozyme fitness (log ratio): -4.2
- Mutation label: "A26G A49G C57U G59A C72A"
  Comparative sign: "≤"
  polymerase ribozyme fitness (log ratio): -4.2
- Mutation label: "A16C A73G G92A"
  Comparative sign: "="
  polymerase ribozyme fitness (log ratio): -3.3
- Mutation label: "U4C A21U C57G A60G C85A A89C G94A"
  Comparative sign: "="
  polymerase ribozyme fitness (log ratio): -2.06
- Mutation label: "A41C C85A C105G G126U"
  Comparative sign: "="
  polymerase ribozyme fitness (log ratio): -3.3
- Mutation label: "A19C A24G C32U C38U G59A C85A G133U U145C"
  Comparative sign: "≤"
  polymerase ribozyme fitness (log ratio): -4.2
- Mutation label: "A17C A29C A66U G67A A91G C96U A115G C116A"
  Comparative sign: "≤"
  polymerase ribozyme fitness (log ratio): -4.2
- Mutation label: "C87A A107C U139C U151A"
  Comparative sign: "≤"
  polymerase ribozyme fitness (log ratio): -4.2
- Mutation label: "A23U C85U A91G G126C G140U"
  Comparative sign: "≤"
  polymerase ribozyme fitness (log ratio): -4.2
- Mutation label: "C27G C54U C76G U144G"
  Comparative sign: "≤"
  polymerase ribozyme fitness (log ratio): -4.2
- Mutation label: "C51A C99G"
  Comparative sign: "="
  polymerase ribozyme fitness (log ratio): -4.07
- Mutation label: "U4A A60U G86A A107G A122C"
  Comparative sign: "≤"
  polymerase ribozyme fitness (log ratio): -4.2
- Mutation label: "C18U A29C U78G G92A A147C"
  Comparative sign: "≤"
  polymerase ribozyme fitness (log ratio): -4.2
- Mutation label: "U45A A49U"
  Comparative sign: "≤"
  polymerase ribozyme fitness (log ratio): -4.2
- Mutation label: "A20U A22U A121U G128A C129U A137C A138C"
  Comparative sign: "≤"
  polymerase ribozyme fitness (log ratio): -4.2
- Mutation label: "G42A G68C G94U"
  Comparative sign: "≤"
  polymerase ribozyme fitness (log ratio): -4.2
- Mutation label: "A21C A40U C93A"
  Comparative sign: "="
  polymerase ribozyme fitness (log ratio): -1.84
- Mutation label: "U4A C43G"
  Comparative sign: "≤"
  polymerase ribozyme fitness (log ratio): -4.2
- Mutation label: "A21U A26U A28U G67A G88A A122U"
  Comparative sign: "≤"
  polymerase ribozyme fitness (log ratio): -4.2
- Mutation label: "A91G A120G"
  Comparative sign: "="
  polymerase ribozyme fitness (log ratio): -2.98
- Mutation label: "A22C C69A G80C C85U A89U A142G"
  Comparative sign: "≤"
  polymerase ribozyme fitness (log ratio): -4.2
- Mutation label: "G62A U82C C95A U101C U148A"
  Comparative sign: "≤"
  polymerase ribozyme fitness (log ratio): -4.2
- Mutation label: "A49G G71A C93G"
  Comparative sign: "≤"
  polymerase ribozyme fitness (log ratio): -4.2
- Mutation label: "A47C A49G"
  Comparative sign: "="
  polymerase ribozyme fitness (log ratio): -0.809
- Mutation label: "A19U G48A C116G U127G"
  Comparative sign: "≤"
  polymerase ribozyme fitness (log ratio): -4.2
- Mutation label: "U15C A40U U53A G84C"
  Comparative sign: "="
  polymerase ribozyme fitness (log ratio): -1.96
- Mutation label: "U56A G74C"
  Comparative sign: "="
  polymerase ribozyme fitness (log ratio): -4.17
- Mutation label: "U31C C35U G68C G92U U104A A115U A119C G143A"
  Comparative sign: "≤"
  polymerase ribozyme fitness (log ratio): -4.2
- Mutation label: "G81A G86A"
  Comparative sign: "="
  polymerase ribozyme fitness (log ratio): -1.56
- Mutation label: "A37G A39U G58C G62A C63U A64U U77A C87G C103G A150U"
  Comparative sign: "≤"
  polymerase ribozyme fitness (log ratio): -4.2
- Mutation label: "A21C U55A C96U"
  Comparative sign: "="
  polymerase ribozyme fitness (log ratio): -0.915
- Mutation label: "G70U G81A"
  Comparative sign: "="
  polymerase ribozyme fitness (log ratio): -2.35
- Mutation label: "G46A G67A G84U A97G C99U C116U"
  Comparative sign: "≤"
  polymerase ribozyme fitness (log ratio): -4.2
- Mutation label: "U4C C96G"
  Comparative sign: "="
  polymerase ribozyme fitness (log ratio): 0.0289
- Mutation label: "C38A U55A G94U C99G"
  Comparative sign: "="
  polymerase ribozyme fitness (log ratio): -3.88
- Mutation label: "A22U A26C G62C C87A C116G A147U"
  Comparative sign: "≤"
  polymerase ribozyme fitness (log ratio): -4.2
- Mutation label: "U13C A29U A52C G86C A107C U109A"
  Comparative sign: "≤"
  polymerase ribozyme fitness (log ratio): -4.2
- Mutation label: "G11U U90A A119U G133C"
  Comparative sign: "≤"
  polymerase ribozyme fitness (log ratio): -4.2
- Mutation label: "A17U A19C C38A G42C U56A U78G A113U C132G A142G U148A"
  Comparative sign: "≤"
  polymerase ribozyme fitness (log ratio): -4.2
- Mutation label: "U33C C57U G80U G83U C87U G128U"
  Comparative sign: "≤"
  polymerase ribozyme fitness (log ratio): -4.2
- Mutation label: "G67C C93G C118G A150C"
  Comparative sign: "≤"
  polymerase ribozyme fitness (log ratio): -4.2
- Mutation label: "U56A G81C A120C G141A"
  Comparative sign: "="
  polymerase ribozyme fitness (log ratio): 0.526
- Mutation label: "G48U U55A C96G A115U"
  Comparative sign: "="
  polymerase ribozyme fitness (log ratio): -4.16
- Mutation label: "U82A G86A A98U U134A"
  Comparative sign: "="
  polymerase ribozyme fitness (log ratio): -3.68
- Mutation label: "A37G A91C A138C G140U"
  Comparative sign: "≤"
  polymerase ribozyme fitness (log ratio): -4.2
- Mutation label: "A66C G84A C87U"
  Comparative sign: "≤"
  polymerase ribozyme fitness (log ratio): -4.2
- Mutation label: "C76A U135C"
  Comparative sign: "="
  polymerase ribozyme fitness (log ratio): -1.96
- Mutation label: "A107U A110U C114U"
  Comparative sign: "≤"
  polymerase ribozyme fitness (log ratio): -4.2
- Mutation label: "A22U C96G"
  Comparative sign: "="
  polymerase ribozyme fitness (log ratio): -0.148
- Mutation label: "G83C G152C"
  Comparative sign: "="
  polymerase ribozyme fitness (log ratio): -3.16
- Mutation label: "G86U U101C C118U"
  Comparative sign: "="
  polymerase ribozyme fitness (log ratio): -1.56
- Mutation label: "C85U A115U G140A"
  Comparative sign: "="
  polymerase ribozyme fitness (log ratio): -3.77
- Mutation label: "A21U A24U U44A U53G U78G A97U A137C G141C"
  Comparative sign: "≤"
  polymerase ribozyme fitness (log ratio): -4.2
- Mutation label: "U55G C69A C99U"
  Comparative sign: "="
  polymerase ribozyme fitness (log ratio): -0.89
- Mutation label: "A30U A122U"
  Comparative sign: "="
  polymerase ribozyme fitness (log ratio): -2.62
- Mutation label: "G70C G88U A97C"
  Comparative sign: "≤"
  polymerase ribozyme fitness (log ratio): -4.2
- Mutation label: "G50A A91U G100U C125A"
  Comparative sign: "≤"
  polymerase ribozyme fitness (log ratio): -4.2
- Mutation label: "C54A G67A G70C C72G A73C G74A C75G C87G C116G"
  Comparative sign: "≤"
  polymerase ribozyme fitness (log ratio): -4.2
- Mutation label: "C36U C99U U145A"
  Comparative sign: "="
  polymerase ribozyme fitness (log ratio): -1.47
- Mutation label: "A19U A40C G81C C96G"
  Comparative sign: "="
  polymerase ribozyme fitness (log ratio): -1.25
- Mutation label: "A16U A22C"
  Comparative sign: "="
  polymerase ribozyme fitness (log ratio): -2.41
